# system-under-test: T1, human TGFβ3, mature dimeric form (human, UniProt P10600 301-412)
# T1 sequence: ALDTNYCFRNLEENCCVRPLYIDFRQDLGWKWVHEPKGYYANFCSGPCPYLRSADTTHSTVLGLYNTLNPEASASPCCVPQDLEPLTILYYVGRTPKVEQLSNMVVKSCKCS
# method-description: cell-based or functional assay
attribute-measured: HEKBlue TGFβ blocking IC50

INSERT INTO measurements (binder, attribute_measured, result) VALUES
  ('h2A10.v2.5 (antibody, human IgG1, kappa, N297G, V domains shown) VH: EVQLLESGGGLVQPGGSLRLSCAASGFDFNSYGMSWVRQAPGKGLEWVADIVSKTYNYTTYYSDSVKDRFTISRDDSKSTVYLQMNSLRAEDTAVYYCTVAPGGSFDYWGQGTLVTVSS VL: DIQLTQSPSSLSASVGDRVTITCRASQSVSISRFNLMHWYQHKPGKQPKLLIYRASNLASGIPSRFSGSGSGTDFTLTISSLQPEDFATYYCQHSRESPWTFGGGTKVEIKR', 'HEKBlue TGFβ blocking IC50', '27.4 nM'),
  ('h2A10.v2.2 (antibody, human IgG1, kappa, N297G, V domains shown) VH: EVQLLESGGGLVQPGGSLRLSCAASGFDFNSYGMSWVRQAPGKGLELVADIVSKTYNYTTYYSDSVKDRFTISRDDSKSTVYLQMNSLRAEDTAVYYCTVAPGGSFDYWGQGTLVTVSS VL: DIQLTQSPSSLSASVGDRVTITCRASQSVSISRFNLMHWYQQKPGKQPKLLIYRASNLASGIPSRFSGSGSGTDFTLTISSLQPEDFATYYCQHSRESPWTFGGGTKVEIKR', 'HEKBlue TGFβ blocking IC50', '0.01 nM'),
  ('h2A10.v2.6 (antibody, human IgG1, kappa, N297G, V domains shown) VH: EVQLLESGGGLVQPGGSLRLSCAASGFDFNSYGMSWVRQAPGKGLELVSDIVSKTYNYTTYYSDSVKDRFTISRDDSKSTVYLQMNSLRAEDTAVYYCTVAPGGSFDYWGQGTLVTVSS VL: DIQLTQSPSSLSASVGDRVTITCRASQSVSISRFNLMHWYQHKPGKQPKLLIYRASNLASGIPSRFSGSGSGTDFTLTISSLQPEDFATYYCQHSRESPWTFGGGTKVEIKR', 'HEKBlue TGFβ blocking IC50', '0.01 nM');

Here are 3 binders. What values of HEKBlue TGFβ blocking IC50 were reported for them?
1. 2A10 (antibody, V domains shown, anti-TGFβ3; also called rat 2A10; r2A10) VH: EVQLVESGGGLVQPKGSLKLSCAASGFDFNSYGMSWVRQAPGKGLDLVADIVSKTYNYTTYYSDSVKDRFTISRDDSQSMVYLQMDNLKTEDTALYYCTVAPGGSFDYWGQGVMVTVSS VL: DIVLTQSPALAVSLGQRATISCRASQSVSISRFNLMHWYQHKPGQQPKLLIYRASNLASGIPARFSGSGSGTDFTLTINPVQADDLATYYCQHSRESPWTFGGGTKLEIK
2. h2A10.v2.7 (antibody, human IgG1, kappa, N297G, V domains shown) VH: EVQLLESGGGLVQPGGSLRLSCAASGFDFNSYGMSWVRQAPGKGLELVADIVSKTYNYTTYYSDSVKDRFTISRDNSKSTVYLQMNSLRAEDTAVYYCTVAPGGSFDYWGQGTLVTVSS VL: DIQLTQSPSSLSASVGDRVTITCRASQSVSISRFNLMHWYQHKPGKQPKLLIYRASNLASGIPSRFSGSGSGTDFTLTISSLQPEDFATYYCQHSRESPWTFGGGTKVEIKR
3. h2A10.v2.8 (antibody, human IgG1, kappa, N297G, V domains shown) VH: EVQLLESGGGLVQPGGSLRLSCAASGFDFNSYGMSWVRQAPGKGLELVADIVSKTYNYTTYYSDSVKDRFTISRDDSKNTVYLQMNSLRAEDTAVYYCTVAPGGSFDYWGQGTLVTVSS VL: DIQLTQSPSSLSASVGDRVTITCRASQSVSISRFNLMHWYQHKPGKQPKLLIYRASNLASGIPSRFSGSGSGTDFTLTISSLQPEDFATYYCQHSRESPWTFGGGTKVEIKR

1. 0.01 nM
2. 0.12 nM
3. 0.01 nM
